GI50 listing for selected molecules.
ASSAY METHOD TEXT: Cytotoxicity against human MEL-AC cells after 72 hrs by MTT assay
Assay type: functional
Give your result in nM as a bare value.

Solved entries:
[[record]]
smiles_structure = "CCCCNC(=O)c1ccc2c(c1)S(=O)(=O)C=C2"
result_value = 1420

[[record]]
smiles_structure = "COc1ccc(CCNC(=O)c2ccc3c(c2)S(=O)(=O)C=C3)cc1"
result_value = 1320

[[record]]
smiles_structure = "COc1ccc(CCNS(=O)(=O)c2ccc3c(c2)S(=O)(=O)C=C3)cc1"
result_value = 1930


Qu. Reported GI50 for "O=S1(=O)C=Cc2ccc(S(=O)(=O)NCc3ccccc3)cc21" : what is it?
Ans. 400

Qu. Reported GI50 for "NC(=O)c1ccc2c(c1)S(=O)(=O)C=C2" : what is it?
Ans. 3520

Qu. Reported GI50 for "COc1ccc(NC(=O)c2ccc3c(c2)S(=O)(=O)C=C3)cc1" : what is it?
Ans. 760
